Origin of measurements: the supplement of paper PMC6470124

experiment notes: absolute recovery over mixed-bed multilayer solid-phase extraction; higher = better recovery
study conditions: wastewater influent; enrichment method: SPE
Consider the following compounds and their measured absolute recovery readings.
measurement kind: absolute recovery (%)

compound | recorded result
O=P1(NCCCl)OCCCN1CCCl (stereo not given) | 89.1
Cc1c(N(C)C)c(=O)n(-c2ccccc2)n1C [4-Dimethylaminoantipyrin (=Aminopyrin)] | 88.2
CC12C=CC(=O)C=C1CCC1C2C(O)CC2(C)C1CCC2(O)C(=O)CO (stereo not given) | 91.4
Cc1c(NC=O)c(=O)n(-c2ccccc2)n1C [4-Formylaminoantipyrin (=4-FAA)] | 103
CC(Cc1ccc(C(C)(C)C)cc1)C[NH+]1CCCCC1 (stereo not given) | 67.3
CC(=O)Nc1nnc(S([NH-])(=O)=O)s1 [Acetazolamide] | 96.6
C#CC[NH+](C)Cc1ccccc1 | 78.1
COc1cccc2c1C(=O)c1c(O)c3c(c(O)c1C2=O)CC(O)(C(=O)CO)CC3OC1CC([NH3+])C(O)C(C)O1 (stereo not given) | 53.3
COCCOCCOCCOCCOC | 99.6
CN(C)C(=O)Nc1ccc(Cl)cc1 | 90.3

###

experiment notes: absolute recovery over vacuum-assisted evaporative concentration; higher = better recovery
study conditions: wastewater influent; enrichment method: VEC
measurement kind: absolute recovery (%)

molecule | recorded result
CNC(=C[N+](=O)[O-])NCCSCc1ccc(C[N+](C)(C)[O-])o1 | 92.2
CC(C)Nc1nc(O)nc(NC(C)C)n1 [Propazine-2-hydroxy I] | 113
COc1cc(OC)nc(NC(=O)[N-]S(=O)(=O)c2ncccc2C(=O)N(C)C)n1 | 102
CC(=O)N(C)c1ccccc1 | 81.1
CSc1nc(NC(C)C)nc(NC(C)C)n1 | 94.8
CC(C)c1c(C(=O)Nc2ccccc2)c(-c2ccccc2)c(-c2ccc(F)cc2)n1CCC(O)CC(O)CC(=O)[O-] (centres undefined) | 57.8
O=c1[nH]sc2ccccc12 | 22.6
CC(C)[NH2+]CC(O)COc1ccc(COCCOC(C)C)cc1 (centres undefined) | 98.1
O=C(Nc1ccc(Cl)cc1)Nc1ccc(Cl)c(Cl)c1 | 112

###

Consider the following compounds and their measured absolute recovery readings.
experiment notes: absolute recovery over mixed-bed multilayer solid-phase extraction; higher = better recovery
study conditions: surface water; enrichment method: SPE

compound | absolute recovery / %
CON(C)C(=O)Nc1ccc(Cl)c(Cl)c1 | 98.3
CC([NH3+])Cc1ccccc1 (stereo not given) | 85.5
COc1ccc(C(C[N+](C)(C)[O-])C2(O)CCCCC2)cc1 (stereo not given) [Venlafaxine-N-Oxide] | 92.8
O=C1CC(C(=O)[O-])CC(=O)C1=C([O-])C1CC1 (stereo not given) [Trinexapac (free acid)] | 36.1
COCC(C)N(C(=O)C(=O)[O-])c1c(C)csc1C (stereo not given) | 99
CNC(=O)Oc1cc(C)c(SC)c(C)c1 | 95.4
C[NH2+]C(C)Cc1ccccc1 (stereo not given) | 86.6
CC[NH+](CC)CC(=O)Nc1c(C)cccc1C | 96.5
CC(C)OC(=O)NC(C(=O)NC(C)c1nc2ccc(F)cc2s1)C(C)C (stereo not given) | 94.6
Cc1c(NC=O)c(=O)n(-c2ccccc2)n1C [4-Formylaminoantipyrin (=4-FAA)] | 93.6
CC1COC(Cn2cncn2)(c2ccc(Oc3ccc(Cl)cc3)cc2Cl)O1 (stereo not given) | 100
COC(=O)c1ccc(I)cc1S(=O)(=O)[N-]C(=O)Nc1nc(C)nc(OC)n1 | 96.8
CCC[NH+](CC)CC1COC2(CCC(C(C)(C)C)CC2)O1 (stereo not given) | 102
CCOc1cc(CC(=O)NC(CC(C)C)c2ccccc2N2CCCCC2)ccc1C(=O)[O-] (stereo not given) [Repaglinide] | 98.7
C=CCOc1ccccc1OCC(O)C[NH2+]C(C)C (stereo not given) | 82.4
NC(=O)Cc1ccc(OCC(O)C[NH3+])cc1 (stereo not given) | 70.3
CCS(=O)(=O)c1nc2ccccn2c1S(=O)(=O)[N-]C(=O)Nc1nc(OC)cc(OC)n1 | 94.4
NC(=O)c1cn(Cc2c(F)cccc2F)nn1 | 101
CNC(=O)CSP(=S)(OC)OC | 90.7
Cc1ccc(NC(=O)N(C)C)cc1Cl | 101
